tgt: T1R1/T1R3 receptor (Felis catus, UniProt E3UMS2)
measurement-description: cell-based
experimental-conditions: read-out: EC50 (mM), +Alanine (20 mM)
measured-parameter: EC50

QUERY: Fill in the blank: the reported EC50 of "O=P(O)(O)OP(=O)(O)OP(=O)(O)OC[C@H]1O[C@@H](n2cnc3c(Cl)ncnc32)[C@H](O)[C@@H]1O" is ____.
RESULT: > 0.3 mM

====

tgt: T1R1/T1R3 receptor (Felis catus, UniProt E3UMS2)
measurement-description: cell-based
Type: cell-based
experimental-conditions: +IMP (0.2 mM); Table 18
measured-parameter: Max resp % of Ala +IMP

Some entries whose results are on file:
| compound | Max resp % of Ala +IMP |
| --- | --- |
| COc1cc(C(=O)NC(C(N)=O)c2ccccc2)cc(Cl)c1OC (stereo not drawn) | 49.4 % of Ala |
| CCC(CC)NC(=O)c1ccc(Br)o1 | 149.6 % of Ala |
| CCCC(C)NC(=O)c1ccc(OC)c(C)c1 (stereo not drawn) | 128.9 % of Ala |
| COC(=O)C(NC(=O)/C=C/c1cccs1)C(C)C (stereo not drawn) | 59.9 % of Ala |
| CCC(CC)NC(=O)c1ccc2c(c1)OCCO2 | 70.9 % of Ala |
| CCC(CC)NC(=O)c1ccc(C)c(C)c1 [3,4-dimethyl-N-(pentan-3-yl)benzamide] | 125.7 % of Ala |
| COc1ccc(/C=C/C(=O)NC2CCCCC2C)cc1 (stereo not drawn) | 144.0 % of Ala |
| O=C(Nc1ccccc1Br)N[C@@H]1c2ccccc2C[C@@H]1O (stereo in doubt) | 44.9 % of Ala |
| CCC(CC)NC(=O)/C=C/c1ccc(OC)cc1 | 171.7 % of Ala |
| CC1CCCC(NC(=O)c2ccc3c(c2)OCO3)C1C (stereo not drawn) | 95.4 % of Ala |

QUERY: Fill in the blank: the reported Max resp % of Ala +IMP of "O=C(CN1C(=O)C(=O)N(Cc2ccccc2)C1=O)c1ccccc1" is ____.
RESULT: 135.7 % of Ala

QUERY: Fill in the blank: the reported Max resp % of Ala +IMP of "O=C(NCCc1ccccc1)C(=O)NCc1cccnc1" is ____.
RESULT: 61.9 % of Ala

====

tgt: T1R1/T1R3 receptor (Felis catus, UniProt E3UMS2)
measurement-description: cell-based
experimental-conditions: T1R1/T1R3 EC50 +20 mM L-alanine
measured-parameter: EC50 (µM)
Give the value, in units of µM, as a plain number.

QUERY: GET /values?readout=EC50&system=T1R1/T1R3 receptor (Felis catus, UniProt E3UMS2)&item= "O=C1CC(=O)N(Cc2ccccc2)C(=O)N1Cc1ccccc1"
RESULT: 310

====

tgt: cat T1R1/T1R3 receptor (Felis catus, UniProt A0ABI7Z2I4)
Sequence (A0ABI7Z2I4 171-420): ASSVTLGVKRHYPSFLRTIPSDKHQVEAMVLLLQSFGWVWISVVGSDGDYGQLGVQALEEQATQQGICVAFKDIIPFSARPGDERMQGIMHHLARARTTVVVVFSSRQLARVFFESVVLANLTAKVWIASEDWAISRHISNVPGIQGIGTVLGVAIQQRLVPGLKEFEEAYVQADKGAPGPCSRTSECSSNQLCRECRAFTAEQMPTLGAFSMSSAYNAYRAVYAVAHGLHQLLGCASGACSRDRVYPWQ
Sequence (Q49KI5 25-865 E206Q/N523D/F654L partner): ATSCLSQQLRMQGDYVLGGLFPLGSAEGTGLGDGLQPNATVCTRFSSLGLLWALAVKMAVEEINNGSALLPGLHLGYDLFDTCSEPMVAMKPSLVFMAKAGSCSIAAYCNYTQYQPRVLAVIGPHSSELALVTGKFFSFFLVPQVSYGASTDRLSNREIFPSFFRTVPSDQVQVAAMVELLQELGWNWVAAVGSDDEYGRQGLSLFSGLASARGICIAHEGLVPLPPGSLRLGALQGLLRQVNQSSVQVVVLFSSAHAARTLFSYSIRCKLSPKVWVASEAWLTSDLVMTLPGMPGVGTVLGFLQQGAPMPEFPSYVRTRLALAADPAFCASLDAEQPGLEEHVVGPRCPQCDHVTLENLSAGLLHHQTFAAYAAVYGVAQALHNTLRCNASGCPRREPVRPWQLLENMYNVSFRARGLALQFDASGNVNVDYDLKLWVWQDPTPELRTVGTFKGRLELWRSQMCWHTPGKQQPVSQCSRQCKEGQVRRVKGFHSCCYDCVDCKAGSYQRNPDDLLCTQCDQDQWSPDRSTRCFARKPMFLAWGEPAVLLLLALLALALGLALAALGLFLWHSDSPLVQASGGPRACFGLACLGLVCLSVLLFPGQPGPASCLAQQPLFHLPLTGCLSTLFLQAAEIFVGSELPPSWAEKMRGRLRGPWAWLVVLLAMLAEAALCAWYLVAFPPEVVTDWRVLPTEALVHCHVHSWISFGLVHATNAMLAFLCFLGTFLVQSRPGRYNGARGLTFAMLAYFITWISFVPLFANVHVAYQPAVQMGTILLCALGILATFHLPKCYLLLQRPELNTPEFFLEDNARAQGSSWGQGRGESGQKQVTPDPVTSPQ
measurement-description: cell-based
Where a name gives a salt, the structure may show the parent alone.
measured-parameter: log10 of Threshold (log10 of the value in mM)
Would you kindly interpret these values as log10 of Threshold expressed in mM?

Some entries whose results are on file:
| compound | tgt | measured-parameter | assay-result |
| --- | --- | --- | --- |
| Nc1ncnc2c1ncn2C1CC(O)C(COP(O)(O)=S)O1 (stereo not shown) | cat T1R1/T1R3 receptor (Felis catus, UniProt A0ABI7Z2I4) | log10 of Threshold | -1.82 |
| Nc1nc2c(ncn2[C@H]2C[C@H](O)[C@@H](COP(O)(O)=S)O2)c(=O)[nH]1 | cat T1R1/T1R3 receptor (Felis catus, UniProt A0ABI7Z2I4) | log10 of Threshold | -2.30 |
| Nc1ncnc2c1ncn2C1OC(COP(=O)(O)O)C(OP(=O)(O)O)C1O (stereo not shown) [Adenosine 3′,5′-diphosphate sodium salt, adenosine 3′, 5′ diphosphate sodium salt] | cat T1R1/T1R3 receptor (Felis catus, UniProt A0ABI7Z2I4) | log10 of Threshold | -3.60 |

QUERY: Fill in the blank: the reported log10 of Threshold of O=P(O)(O)OC[C@H]1O[C@@H](n2cnc3cncnc32)[C@H](O)[C@@H]1O [Purine riboside-5′-O-monophosphate, reference compound] is ____.
RESULT: -2.30

QUERY: Fill in the blank: the reported log10 of Threshold of Nc1ncnc2c1ncn2[C@H]1C[C@H](O)[C@@H](COP(=O)(O)O)O1 [2′-Deoxyadenosine 5′-monophosphate] is ____.
RESULT: -1.46

QUERY: Fill in the blank: the reported log10 of Threshold of "CNc1ncnc2c1ncn2[C@H]1C[C@H](OP(=O)(O)O)[C@@H](COP(=O)(O)O)O1" is ____.
RESULT: -1.89

QUERY: Fill in the blank: the reported log10 of Threshold of Nc1nc2c(nc(Br)n2[C@@H]2O[C@H](COP(=O)(O)O)[C@@H](O)[C@H]2O)c(=O)[nH]1 [8-Bromoguanosine-5′-O-monophosphate] is ____.
RESULT: 0.00
